- assay name: In vivo pharmacokinetic study of HL (plasma, HPLC)
- Set-up: species or system CD®(SD) IGS rats
- condition label: CD(SD) IGS (SD), rat, plasma; PO, 30 mg kg−1, mean, n = 3

# chemical structure, result units, MRT last
data = [
    ("S=C(NN=C(c1ccccn1)c1ccccn1)N1CCN(c2nccs2)CC1", "h", 9.4),
]

---

- assay name: In vivo pharmacokinetic study of HL (plasma, HPLC)
- Parameters: species or system CD®(SD) IGS rats
- condition label: CD(SD) IGS (SD), rat, plasma; PO, 30 mg kg−1, sampling time 8.00 h
readout type: concentration at 8 h (ng/mL)

# chemical structure, readout type, recorded result
measured = [
    ("S=C(NN=C(c1ccccn1)c1ccccn1)N1CCN(c2nccs2)CC1", "concentration at 8 h", 218),
]

Just for reference, paper PMC11357102 is where these values come from.
